Assay: melting temperature; fluorescence melt of hairpins on a sequencing array, two-state fit, raised by 9.35 °C to match UV melts
Details: sodium 0.088 M
Mark T only when Tm stays strictly below 60 °C. Values equal to the cut-off are F.

CHAIN: GTGCTGACGAAAGTCCAC (((..(((....))))))
ANSWER_LABEL: T
//
CHAIN: GTAGTGACGAAAGTCTAC (((..(((....))))))
ANSWER_LABEL: T
//
CHAIN: GTCAATGGAAACACTGAC ((((.((....)).))))
ANSWER_LABEL: T
//
CHAIN: GACACGCGAAAGCGGTC (((.(((....))))))
ANSWER_LABEL: T
//
CHAIN: GCCGCAGGAAACCGCGGC (((((.(....).)))))
ANSWER_LABEL: F

====

Measured Tm values are reported for all entries that follow.
Assay: melting temperature; fluorescence melt of hairpins on a sequencing array, two-state fit, raised by 9.35 °C to match UV melts
Conditions: sodium 0.088 M

CHAIN: GATCGTTCGACGATC ((((((...))))))
Tm [°C]: 55.7

CHAIN: GGCTCCGAAAGGACAGCC ((((((....)))..)))
Tm [°C]: 50.6

CHAIN: GCGCACGGAAACGTGTGC ((.((((....)))).))
Tm [°C]: 67.7

CHAIN: GAAATACGAAAGTACTTC (((.(((....))).)))
Tm [°C]: 29.5

CHAIN: GATCCTCGTCAGGATC ((((((....))))))
Tm [°C]: 50.8

CHAIN: GCATGGCGAAAGCTACGC ((.(.((....)).).))
Tm [°C]: 35

====

Test: folding enthalpy; higher = less favourable; fluorescence melt of hairpins on a sequencing array, two-state fit
Details: sodium 0.088 M
Values of folding enthalpy greater than or equal to -20 kcal/mol map to Condition met; values below map to Condition not met.

CHAIN: GCTCAGCGAAAGCTGCGC ((.((((....)))).))
ANSWER_LABEL: Condition not met
--
CHAIN: GCGGACCTCCGC ((((....))))
ANSWER_LABEL: Condition not met
--
CHAIN: GTCGTCCGAAAGGAAGAC (((.(((....))).)))
ANSWER_LABEL: Condition not met
--
CHAIN: GATCGTGGAAACGTGATC ((((..(....)..))))
ANSWER_LABEL: Condition met
--
CHAIN: GCGAGCTTTCGC ((((....))))
ANSWER_LABEL: Condition met
--
CHAIN: GCACTGCGAAAGCTATGC (((..((....))..)))
ANSWER_LABEL: Condition met
--
CHAIN: GATCAGAAGACTGATC ((((((....))))))
ANSWER_LABEL: Condition not met
--
CHAIN: GCACAGCGAAAGCTTGGC ((..(((....)))..))
ANSWER_LABEL: Condition met
--
CHAIN: GCCACGGGAAACCGCAGC ((..(((....)))..))
ANSWER_LABEL: Condition met
--
CHAIN: GATCTGTGTCAGATC ((((((...))))))
ANSWER_LABEL: Condition not met
--
CHAIN: GCAGCCGAAAGGCAGTGC ((((((....)))..)))
ANSWER_LABEL: Condition met
--
CHAIN: GATCTACAACTAGATC ((((((....))))))
ANSWER_LABEL: Condition not met

====

Test: melting temperature; fluorescence melt of hairpins on a sequencing array, two-state fit, raised by 9.35 °C to match UV melts
Conditions: sodium 0.088 M
Response field class: string, computed from recorded Tm by ranges low interval: < 40 °C; middle interval: ≥ 40 °C and < 50 °C; high interval: ≥ 50 °C

CHAIN: GATCTGAGTCCAGATC ((((((....))))))
ANSWER_LABEL: middle interval
//
CHAIN: GACTAGCGAAAGCTGGTC (((.(((....))).)))
ANSWER_LABEL: high interval
//
CHAIN: GTCGGGGGAAACCCTGGC (.(.(((....))).).)
ANSWER_LABEL: middle interval
//
CHAIN: GTCCCCCGAAAGGGAGAC (((.(((....))).)))
ANSWER_LABEL: high interval
//
CHAIN: GAGGGTGGAAACGTCCTC ((((..(....)..))))
ANSWER_LABEL: low interval
//
CHAIN: GAGTTACGAAAGTATCTC (((.(((....))).)))
ANSWER_LABEL: middle interval
//
CHAIN: GTATAGAAATATAC (((((....)))))
ANSWER_LABEL: low interval
//
CHAIN: GACTAACCGAAAGGTGTC (((..(((....))))))
ANSWER_LABEL: middle interval
//
CHAIN: GATCGCGTGGCGATC ((((((...))))))
ANSWER_LABEL: high interval
//
CHAIN: GCAGATCGAAAGATTTGC (((.(((....))).)))
ANSWER_LABEL: high interval

====

Experiment: folding enthalpy; higher = less favourable; fluorescence melt of hairpins on a sequencing array, two-state fit
Settings: sodium 0.088 M
folding enthalpy below -30 kcal/mol gives no (0); folding enthalpy at or above it gives yes (1).

CHAIN: GCTGCGCGAAAGCAGAGC (((..((....))..)))
ANSWER_LABEL: yes (1)
--
CHAIN: GCTCAGAAATGAGC (((((....)))))
ANSWER_LABEL: yes (1)
--
CHAIN: GAGCACGGAAACGCGCTC ((((.((....)).))))
ANSWER_LABEL: no (0)
--
CHAIN: GGGTGCGAAAGCAACCCC ((((((....)))..)))
ANSWER_LABEL: yes (1)
--
CHAIN: GGTGTGGGAAACCACGTC (..((((....))))..)
ANSWER_LABEL: yes (1)
--
CHAIN: GCGTACCACGC ((((...))))
ANSWER_LABEL: yes (1)
--
CHAIN: GCTAGCGAAAGCTGAAGC ((((((....)))..)))
ANSWER_LABEL: yes (1)
--
CHAIN: GGCAGCGAAAGCTTAGCC ((((((....)))..)))
ANSWER_LABEL: yes (1)
--
CHAIN: GCTTACGAAAGTAACAGC ((((((....)))..)))
ANSWER_LABEL: yes (1)
--
CHAIN: GATCGGCGTACCGATC ((((((....))))))
ANSWER_LABEL: no (0)
--
CHAIN: GAAAACCGAAAGGTCTTC (((.(((....))).)))
ANSWER_LABEL: yes (1)
--
CHAIN: GCTTCCGAAAGGACAAGC ((((((....)))..)))
ANSWER_LABEL: yes (1)
--
CHAIN: GCGCCGCGAAAGCACCGC (((..((....))..)))
ANSWER_LABEL: yes (1)
--
CHAIN: GGCCAAGGAAACTCGGCC ((((.((....)).))))
ANSWER_LABEL: no (0)
--
CHAIN: GGACTGCGAAAGCATCC (((.(((....))))))
ANSWER_LABEL: yes (1)
--
CHAIN: CGTTCCGGAAACGGCACG (((.(((....))).)))
ANSWER_LABEL: no (0)
--
CHAIN: GTCGTACGAAAGTAAGAC (((.(((....))).)))
ANSWER_LABEL: no (0)
--
CHAIN: GCTTGCGGAAACGCAGGC ((.((((....)))).))
ANSWER_LABEL: no (0)
--
CHAIN: CGAAGGAAACTTCG (((((....)))))
ANSWER_LABEL: yes (1)
--
CHAIN: GCACGGCGAAAGCTGCGC ((.(.((....)).).))
ANSWER_LABEL: yes (1)
--
CHAIN: GATCTCCGCAGAGATC ((((((....))))))
ANSWER_LABEL: no (0)
--
CHAIN: GGGTTCGAAAGAAGGCCC ((((((....)))..)))
ANSWER_LABEL: yes (1)
--
CHAIN: GGGCCCTCGAAAGAGCCC (((..(((....))))))
ANSWER_LABEL: yes (1)
--
CHAIN: GAGGTTGGAAACGACCTC (((((.(....).)))))
ANSWER_LABEL: no (0)
--
CHAIN: GCGTGTGGAAACGCACGC (((((.(....).)))))
ANSWER_LABEL: no (0)
